Origin of the recorded values: the supplement of paper PMC10567573

B1: SPOPL (parent)
chain: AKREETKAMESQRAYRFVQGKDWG

Variants of: B1
Experiment: protein stability index of a GFP-peptide fusion (GPS, HEK-293T) (PSI 1-6); higher = more stable;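 also: lentivirally expressed fusions sorted by FACS into six bins by GFP to DsRed ratio, PSI derived from sequencing read proportions per bin multiplied by bin number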
Conditions: c terminus: a fixed tail appended
I would appreciate it if you labelled entries rule met when protein stability index is 3 or higher, otherwise rule not met.

Solved entries:
{"columns": ["mutantDesignation", "discreteLabel"],
 "data": [
  ["E5F", "rule not met"],
  ["A8P", "rule not met"],
  ["T6I", "rule not met"]
]}

Form field: protein stability index at least 3? Entry: "K2P"
rule met

What about "A1G" ?
rule not met

What about "A8E" ?
rule met

What about "Y15L" ?
rule not met

What about "W23Q" ?
rule met

What about "G20Y" ?
rule met

What about "K7A" ?
rule met

What about "A14N" ?
rule met

What about "G24H" ?
rule met

What about "A1Q" ?
rule met
